Experiment: solvent given as SMILES
Settings: in CO
Give emission maximum for every item shown.
# output: bare number, implied unit nm

Q. Consider the molecule shown here: COc1ccc(C2=C3C(C)=CC(C)=[N+]3[B-](F)(F)n3c(/C=C/c4ccc(N(C)C)cc4)cc(C)c32)cc1 What is its recorded emission maximum?
A. 696

Q. Quick one: emission maximum of CN(C)CCN(Cc1c2ccccc2cc2ccccc12)c1ccc([N+](=O)[O-])cc1[N+](=O)[O-] ?
A. 392

Q. Which emission maximum is listed for Clc1ccc(/C=C(\c2ccccc2)c2nc3ccccc3s2)cc1 ?
A. 430

Q. Bench note: what emission maximum did COc1ccc(/C=C/C=C/C2=NC3C(=O)NC(N)=NC3N2[C@H]2C[C@H](O)[C@@H](CO)O2)cc1 (some centres undefined) show?
A. 438
